- Tested on: DLD-1 colon
- assay_method_text: NCI tumour cell line growth inhibition, 48 h
assay_readout: TGI

1) CCOc1cc2c(cnc3c4cc(OC)c(OC)cc4ccc23)cc1OC    > 100 µM
2) COC1/C(=C\C(=O)OC(C)(C)C)c2ccccc2N1C(C)=O (stereo not given)    > 100 µM
3) COc1ccc2c([nH]c3cc(O)c(C)cc32)c1C=O    > 25 µM
4) O=C(O)c1c2c(c(C(=O)O)c3ccccc13)-c1ccccc1-2    > 100 µM
5) CCCCCCCCCCC(C)CCCCCCC(=O)OCC(COP(=O)([O-])OCC[N+](C)(C)C)OC(=O)CCCCCCC(C)CCCCCCCCCC (stereo not given)    > 100 µM
